Test system: MALME-3M melanoma
Test: NCI-60 one-dose screen, 48 h (100 = growth as untreated, 0 = no growth, -100 = all killed)
Settings: 10 µM unless noted
This is part of a sample that, as a whole, favours compounds with a hit. Of some 83,000 tested, about 20% had one in any assay.
Answer rule not met if growth is under -20%, and rule met if it is -20% or more.

The examples below pair each entry with its known result.
Molecule: CCN(CC)CC(C)Nc1ccc([N+](=O)[O-])c2sc3ccccc3c(=O)c12 (stereo unspecified)
Assay system: MALME-3M melanoma
Class label: rule met
//
Molecule: Oc1ccccc1N=Cc1c(O)ccc2ccccc12
Assay system: MALME-3M melanoma
Class label: rule met
//
Molecule: COc1ccc(/C=N\NC(=O)c2ccncc2)cc1O
Assay system: MALME-3M melanoma
Class label: rule met
//
Molecule: O=C(/C=C/c1cc2ccccc2[nH]c1=O)/C=C/c1cc2ccccc2[nH]c1=O
Assay system: MALME-3M melanoma
Class label: rule not met

Hi team, for `O=C(/C=C\c1cccc([N+](=O)[O-])c1)c1ccccc1` , is the recorded growth at or above -20%? rule met

Hi team, for `O=C1c2ccccc2-c2nccc3cc(Cl)nc1c23` , is the recorded growth at or above -20%? rule not met

* * *

Test system: MCF7 breast
Assay: NCI-60 one-dose screen, 48 h
Settings: 10 µM unless noted
This is part of a sample that, as a whole, favours compounds with a hit. Of some 83,000 tested, about 20% had one in any assay. Active and inactive are the calls of the source. Rule for the calls: active = growth percent below 10; inactive = the rest.
One label from this list, please: 1 = active, 0 = inactive

The examples below pair each entry with its known result.
Compound string: O=C1NC(=O)C(CC(=O)n2c(-c3ccccc3)nc3ccccc32)C(=O)N1
Class label: 0
--
Compound string: COCCCN=C(N)c1ccc(NC(=O)c2ccc(C(=O)Nc3ccc(C(N)=NCCCOC)cc3)cc2)cc1
Class label: 0
--
Compound string: COc1cc2c(=O)n(CC3CCCCC3)c3c4cc[nH]c4ncc3c2cc1OC
Class label: 0
--
Compound string: CCN(CC)Cc1cc(Nc2c3ccccc3nc3cc(Cl)ccc23)ccc1O
Class label: 1
--
Compound string: Cc1cc(Nc2nc(-c3cccnc3)nc3ccccc23)n[nH]1
Class label: 0

Check the results log: what was the call for `COc1ccc(/C=C/C(=O)c2c(O)c(C)c(O)c3c2OC2=CC(O)=C(C(C)=O)C(=O)[C@]23C)cc1` ? 1

Check the results log: what was the call for `CCOC(=O)c1ccc2c(c1)nc(/C=C/c1ccc(Cl)cc1)n2-c1cc(C(C)(C)C)[nH]n1` ? 0

Check the results log: what was the call for `O=C1C=CC(=O)c2c1nc1n2CCCC1` ? 0

Check the results log: what was the call for `Cc1ccc(-c2nc(/C=N/Nc3cc(C)nc4ccc(Cl)cc34)c(C)o2)cc1` ? 1

Check the results log: what was the call for `COc1cc(/C=N/N(C)C)ccc1O` ? 0

* * *

Test system: HCT-15 colon
Assay: NCI-60 one-dose screen, 48 h
Conditions: 10 µM unless noted
The panel holds about 83,000 compounds, 20% with a hit somewhere; the sample as a whole holds those more often. The source made the active and inactive calls. How the source made its calls: active means growth percent below 10; inactive means the rest.
One label from this list, please: active, inactive

Compound string: Cn1c2ccccc2c2c3c(c4c5ccccc5[nH]c4c21)C(=O)N(N)C3=O
Class label: inactive
--
Compound string: CC/C(=C(\c1ccccc1)c1ccc(OCCNC)cc1)c1ccccc1
Class label: active
--
Compound string: CC[C@]12C=CCN3CC[C@@]4(c5ccc(OC)cc5N(C)[C@H]4[C@@](O)(C(=O)OC)[C@@H]1OC(=O)CCC(=O)N[C@@H](Cc1c[nH]c4ccccc14)C(=O)OC)[C@@H]32
Class label: inactive
--
Compound string: CCOC(=S)SCc1ccc(Cl)cc1
Class label: inactive
--
Compound string: Cc1cc(Nc2nc(-c3cccnc3)nc3ccccc23)n[nH]1
Class label: inactive

Check the results log: what was the call for `CC(=O)O[C@H]1CC[C@]2(C)[C@H]3CC[C@@H]4[C@H]5[C@H](C(C)C)CC[C@]5(C(=O)OCC(CO)(CO)N=C(N)N)CC[C@@]4(C)[C@]3(C)CC[C@H]2C1(C)C` ? inactive

Check the results log: what was the call for `COc1c2ccccc2c(OC)c2[nH]c(=O)ccc12` ? inactive

Check the results log: what was the call for `CC(C)C1=C[C@@]23CC[C@@H]4[C@](C)(CCC[C@@]4(C)C(=O)OCC#CCN4CCCC4)[C@H]2C[C@@H]1[C@H]1C(=O)OC(=O)[C@H]13` ? inactive
